Target: ScCyk3
Experiment: SPOT peptide array binding signal intensity (averaged, normalized) (arbitrary units (background-subtracted, floor 0; scale differs between SH3 domains)); higher = stronger binding of the SH3 domain to the peptide
Property: SPOT peptide array binding signal intensity; scope: individual binders
Answer as a number with no unit attached.

NNNKMRPHLPPLSSG	2.25

Please find the next binder below.
Looking for the measured SPOT peptide array binding signal intensity of RSVKRPRRAPRPVVS , can you help?
32
